Source of measurements: patent US20220402862A1

method notes: pKa measurement of unformulated amine lipid (fluorescence, method of Jayaraman et al.)
Type: physicochemical
test parameters: 100 μM in 0.1 M phosphate buffer, pH 2.0-12.0
value type: pKa
# output: bare number, no unit

Recorded pKa, per entry:
| molecule | endpoint value |
| --- | --- |
| CCCCC/C=C\C/C=C\CCCCCCCC(=O)OCC(COC(=O)CCC(OCCCCCCCC)OCCCCCCCC)COC(=O)OCCCN1CCCCC1 (stereo not drawn) | 5.7 |
| CCCCC/C=C\C/C=C\CCCCCCCC(=O)OCC(COC(=O)CCC(OCCCCCCCC)OCCCCCCCC)COC(=O)NCC1CCCN1CC (stereo not drawn) | 7.33 |

IN: Read the entry CCCCCCCCCCOC(=O)CCCCCCCC(=O)OCC(COC(=O)CCC(OCCCCCCCC)OCCCCCCCC)COC(=O)OCCCN(CC)CC (stereo not drawn) and write its reported pKa.
OUT: 6.4
